Measured IC50, listed per entry.
- system: Adrenergic receptor alpha-1 (Rattus norvegicus, UniProt P15823+P23944+P43140)
- measurement-notes: Inhibition of [3H]WB-4101 binding to rat cortical Alpha-1 adrenergic receptor in vitro
- Type: protein assay

Below: 5 compounds and their reported IC50.
[[record]]
compound = "O=C(CCCN1CCN(c2ncc(F)cn2)CC1)c1ccc(F)cc1"
reported = "29 nM"

[[record]]
compound = "O=C(CCCN1CCN(c2ncc(Cl)cn2)CC1)c1ccc(F)cc1"
reported = "51 nM"

[[record]]
compound = "Fc1ccc(/C=C(\\CCN2CCN(c3ncc(F)cn3)CC2)c2ccc(F)cc2)cc1"
reported = "756 nM"

[[record]]
compound = "CSc1nc(N2CCN(CCCC(=O)c3ccc(F)cc3)CC2)ncc1F"
reported = "95 nM"

[[record]]
compound = "COc1nc(N2CCN(CCCC(O)c3ccc(F)cc3)CC2)ncc1F (configuration not stated)"
reported = "180 nM"


IN: # IC50 lookup, item OC(CCCN1CCN(c2ncc(Br)cn2)CC1)c1ccc(F)cc1 (configuration not stated)
OUT: 1500 nM

IN: Could you share which IC50 value was measured for N#CC(CCCN1CCN(c2ncc(F)cn2)CC1)c1ccc(F)cc1 (configuration not stated) ?
OUT: 266 nM

IN: For CSc1nc(N2CCN(CCCC(O)c3ccc(F)cc3)CC2)ncc1F (configuration not stated) , what is its reported IC50?
OUT: 305 nM

IN: Entry under review: NC(CCCN1CCN(c2ncc(F)cn2)CC1)c1ccc(F)cc1 (configuration not stated) . Reported IC50?
OUT: 446 nM

IN: Requested field: IC50. Item: O=C(CCCN1CCN(c2ncc(Br)cn2)CC1)c1ccc(F)cc1
OUT: 72 nM

IN: State the recorded IC50 for this entry: O/N=C(\CCCN1CCN(c2ncc(F)cn2)CC1)c1ccc(F)cc1
OUT: 22 nM

IN: Reported IC50 for OC(CCCN1CCN(c2ncccn2)CC1)c1ccc(F)cc1 (configuration not stated) : what is it?
OUT: 162 nM

IN: Entry OC(CCCN1CCN(c2ncc(F)cn2)CC1)c1ccc(F)cc1 (stereo in doubt; 16) : reported IC50 = ?
OUT: 520 nM

IN: What does the data say about its IC50? Entry: Oc1nc(N2CCN(CCCC(O)c3ccc(F)cc3)CC2)ncc1F (configuration not stated)
OUT: > 1000 nM

IN: Which IC50 value is on record for CCC(O)(CCCN1CCN(c2ncc(F)cn2)CC1)c1ccc(F)cc1 (configuration not stated) ?
OUT: > 1000 nM

IN: Which IC50 value belongs to CCC(O)(CCCN1CCN(c2ncccn2)CC1)c1ccc(F)cc1 (configuration not stated) ?
OUT: 230 nM

IN: Report IC50 for OC(CCCN1CCN(c2ncccn2)CC1)(c1ccc(F)cc1)c1ccc(F)cc1 please.
OUT: 400 nM

IN: Could you share which IC50 value was measured for Fc1ccc(/C=C(\CCN2CCN(c3ncccn3)CC2)c2ccc(F)cc2)cc1 ?
OUT: 375 nM

IN: # get_value(readout='IC50', item= OC(CCCN1CCN(c2ncc(F)cn2)CC1)(c1ccc(F)cc1)c1ccc(F)cc1 )
OUT: 1140 nM

IN: Sample O=C(CCCN1CCN(c2ncccn2)CC1)c1ccc(F)cc1 — what was its IC50?
OUT: 6 nM

IN: Would you kindly share the measured IC50 for OC(CCN1CCN(c2ncc(F)cn2)CC1)c1ccc(F)cc1 (configuration not stated) ?
OUT: 814 nM

IN: Could you share which IC50 value was measured for OC(CCCN1CCN(c2ncc(Cl)cn2)CC1)c1ccc(F)cc1 (configuration not stated) ?
OUT: 1420 nM

meta.source: ChEMBL document CHEMBL1126099
